Listed compounds paired with reported pIC50
biological target: human M1 receptor (Homo sapiens); assay: In vitro functional assay of muscarinic acetylcholine receptor activity (aequorin calcium flux, antagonist mode vs EC80 acetylcholine), M1; type: cell-based
Sequence (P11229 whole entry): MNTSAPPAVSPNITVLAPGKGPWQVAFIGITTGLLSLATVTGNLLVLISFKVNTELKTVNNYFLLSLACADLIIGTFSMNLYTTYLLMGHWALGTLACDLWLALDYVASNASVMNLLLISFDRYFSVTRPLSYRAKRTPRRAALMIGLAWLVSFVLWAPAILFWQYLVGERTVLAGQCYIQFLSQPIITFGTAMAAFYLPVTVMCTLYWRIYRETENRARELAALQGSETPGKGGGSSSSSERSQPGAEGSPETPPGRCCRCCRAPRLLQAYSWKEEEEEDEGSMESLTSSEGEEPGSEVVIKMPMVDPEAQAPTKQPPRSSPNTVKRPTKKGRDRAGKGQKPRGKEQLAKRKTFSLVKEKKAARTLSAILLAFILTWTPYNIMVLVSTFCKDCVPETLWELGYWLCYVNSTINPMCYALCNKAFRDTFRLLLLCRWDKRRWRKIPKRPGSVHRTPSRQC
pIC50: −log10 of the molar value.

Illustrative cases are given below, each with its answer.
# STRUCTURE_AS_SMILES, pIC50
measured = [
    ("O=C(CCS(=O)(=O)c1cccc2ncsc12)N1C[C@H]2CC[C@@H](C1)N2c1ccncc1F", "> 7.00"),
    ("[2H]C([2H])(NCCC(=O)N1CC2CCC(C1)N2c1ccc(C#N)cn1)c1cccc2ncsc12", "> 7.00"),
    ("N#Cc1ccc(N2C3CCC2CN(C(=O)CCNCc2cccc4ncnn24)C3)nc1", "> 7.00"),
    ("N#Cc1ccc(N2C3CCC2CN(C(=O)CCCCc2cccc4ncsc24)C3)nc1", "> 7.00"),
    ("O=C(CCOCc1cccc2nccn12)N1C[C@H]2CC[C@@H](C1)N2c1ccncc1F", "6.00 to 7.00"),
    ("CN(CCC(=O)N1CC2CCC(C1)N2c1ccc(C#N)cn1)Cc1cccc2ncsc12", "6.00 to 7.00"),
]

Challenge: Reported pIC50, compound `O=C(CCOCc1cccc2cnccc12)N1C[C@H]2CC[C@@H](C1)N2c1ccc(F)cn1` : ____
Response given: 6.00 to 7.00

Challenge: Also check `N#Cc1ccc(N2C3CCC2CN(C(=O)CCNCc2cccc4nsnc24)C3)nc1`
Response given: 6.00 to 7.00
